Reported yeast fitness is given for each of the following variants.
B1: tRNA (parent)
chain: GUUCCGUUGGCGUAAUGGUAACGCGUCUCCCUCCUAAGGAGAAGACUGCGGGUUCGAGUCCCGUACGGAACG

variants of: B1; assay: yeast fitness relative to wild type (ratio to wild type); higher = fitter; tRNA-Arg(CCU), competitive growth, 37 C, YPD
Variants at the floor of the assay were thinned out.

Take a look at these entries with their results.
mutant.name	result
C29G C46U A57G C61U	≤ 0.5
C5A A20C A21G A65G C66U	≤ 0.5
U13C C24G C49G	≤ 0.5
C5G A40C C49U	≤ 0.5
G6C C31U G39A C46G	≤ 0.5

*Q* Given G18A A20U C49G U54A G68U A69U , respond with its yeast fitness.
*A* ≤ 0.5

*Q* Note yeast fitness for the variant shown: U3A C30G C66G
*A* ≤ 0.5
